- EXPERIMENT SUMMARY: Cytotoxicity against human Huh-Mono cells after 3 days by MTT assay
- Type: cell-based

[
  {
    "COMPOUND": "C[C@@]1(O)[C@H](O)[C@@H](CO)O[C@H]1n1ccc(N)nc1=O",
    "CC50 at 72 h": "> 33 µM"
  },
  {
    "COMPOUND": "CC(C)CCn1c(=O)c(C2=NS(=O)(=O)c3ccccc3N2)c(O)c2ccccc21",
    "CC50 at 72 h": "> 33 µM"
  },
  {
    "COMPOUND": "OC[C@H]1O[C@@H](n2nnc3cc(Cl)c(Cl)cc32)[C@H](O)[C@@H]1O",
    "CC50 at 72 h": "> 100 µM"
  },
  {
    "COMPOUND": "CC(C)(C)NC(=O)N[C@H](C(=O)N1C[C@H]2[C@@H]([C@H]1C(=O)NC(CC1CCC1)C(=O)C(N)=O)C2(C)C)C(C)(C)C (stereo partly drawn)",
    "CC50 at 72 h": "> 33 µM"
  },
  {
    "COMPOUND": "COc1ccc2c(O[C@@H]3C[C@H]4C(=O)N[C@]5(C(=O)O)C[C@H]5/C=C\\CCCCC[C@H](NC(=O)OC5CCCC5)C(=O)N4C3)cc(-c3csc(NC(C)C)n3)nc2c1",
    "CC50 at 72 h": "> 3 µM"
  },
  {
    "COMPOUND": "C[C@@]1(O)[C@H](O)[C@@H](CO)O[C@H]1n1cnc2c(N)ncnc21",
    "CC50 at 72 h": "> 33 µM"
  },
  {
    "COMPOUND": "O=C(O)CNc1ccc(-c2ccc(Cl)cc2)c(COc2ccc(-c3nc4cc(C(=O)O)ccc4n3C3CCCCC3)cc2)c1",
    "CC50 at 72 h": "24 µM"
  },
  {
    "COMPOUND": "CNC(=O)c1c(-c2ccc(F)cc2)oc2cc(N(CCO)S(C)(=O)=O)c(C3CC3)cc12",
    "CC50 at 72 h": "> 33 µM"
  }
]

---

- EXPERIMENT SUMMARY: Cytotoxicity against human Huh-9-13 cells after 3 days by MTT assay
- Format: cell-based
READOUT TYPE: CC50 at 72 h

[
  {
    "COMPOUND": "O=C(O)CNc1ccc(-c2ccc(Cl)cc2)c(COc2ccc(-c3nc4cc(C(=O)O)ccc4n3C3CCCCC3)cc2)c1",
    "RESULT": "24 µM"
  },
  {
    "COMPOUND": "CNC(=O)c1c(-c2ccc(F)cc2)oc2cc(N(CCO)S(C)(=O)=O)c(C3CC3)cc12 [NESBUVIR]",
    "RESULT": "> 33 µM"
  },
  {
    "COMPOUND": "[N-]=[N+]=N[C@]1(CO)O[C@@H](n2ccc(N)nc2=O)[C@H](O)[C@@H]1O [4'-AZIDOCYTIDINE]",
    "RESULT": "> 33 µM"
  },
  {
    "COMPOUND": "CC(C)CCn1c(=O)c(C2=NS(=O)(=O)c3ccccc3N2)c(O)c2ccccc21",
    "RESULT": "> 33 µM"
  },
  {
    "COMPOUND": "C[C@@]1(F)[C@H](O)[C@@H](CO)O[C@@H]1n1ccc(N)nc1=O",
    "RESULT": "> 33 µM"
  }
]

---

- EXPERIMENT SUMMARY: Cytotoxicity against human Huh5-2 cells after 3 days by MTT assay
- Type: cell-based, Huh-5-2

[
  {
    "MOLECULE": "O=C(O)CNc1ccc(-c2ccc(Cl)cc2)c(COc2ccc(-c3nc4cc(C(=O)O)ccc4n3C3CCCCC3)cc2)c1",
    "CC50 at 72 h": "21.5 µM"
  },
  {
    "MOLECULE": "COc1ccc2c(O[C@@H]3C[C@H]4C(=O)N[C@]5(C(=O)O)C[C@H]5/C=C\\CCCCC[C@H](NC(=O)OC5CCCC5)C(=O)N4C3)cc(-c3csc(NC(C)C)n3)nc2c1",
    "CC50 at 72 h": "> 3 µM"
  },
  {
    "MOLECULE": "C[C@@]1(O)[C@H](O)[C@@H](CO)O[C@H]1n1ccc(N)nc1=O",
    "CC50 at 72 h": "> 33 µM"
  },
  {
    "MOLECULE": "C[C@@]1(O)[C@H](O)[C@@H](CO)O[C@H]1n1cnc2c(N)ncnc21",
    "CC50 at 72 h": "> 33 µM"
  },
  {
    "MOLECULE": "C[C@@]1(F)[C@H](O)[C@@H](CO)O[C@@H]1n1ccc(N)nc1=O",
    "CC50 at 72 h": "> 33 µM"
  },
  {
    "MOLECULE": "Brc1c(Br)c(Br)c2[nH]nnc2c1Br",
    "CC50 at 72 h": "> 100 µM"
  },
  {
    "MOLECULE": "O=C(O)c1cccs1",
    "CC50 at 72 h": "> 33 µM"
  },
  {
    "MOLECULE": "OC[C@H]1O[C@@H](n2nnc3cc(Cl)c(Cl)cc32)[C@H](O)[C@@H]1O",
    "CC50 at 72 h": "> 100 µM"
  },
  {
    "MOLECULE": "CNC(=O)c1c(-c2ccc(F)cc2)oc2cc(N(CCO)S(C)(=O)=O)c(C3CC3)cc12",
    "CC50 at 72 h": "> 33 µM"
  },
  {
    "MOLECULE": "CC(C)CCn1c(=O)c(C2=NS(=O)(=O)c3ccccc3N2)c(O)c2ccccc21",
    "CC50 at 72 h": "> 33 µM"
  },
  {
    "MOLECULE": "[N-]=[N+]=N[C@]1(CO)O[C@@H](n2ccc(N)nc2=O)[C@H](O)[C@@H]1O",
    "CC50 at 72 h": "> 33 µM"
  },
  {
    "MOLECULE": "C/C=C/C[C@@H](C)[C@@H](O)[C@H]1C(=O)N[C@@H](CC)C(=O)N(C)[C@H](C)C(=O)N(CC)[C@@H](C(C)C)C(=O)N[C@@H](C(C)C)C(=O)N(C)[C@@H](CC(C)C)C(=O)N[C@@H](C)C(=O)N[C@H](C)C(=O)N(C)[C@@H](CC(C)C)C(=O)N(C)[C@@H](CC(C)C)C(=O)N(C)[C@@H](C(C)C)C(=O)N1C",
    "CC50 at 72 h": "> 3 µM"
  },
  {
    "MOLECULE": "CCC[C@H](NC(=O)[C@@H]1[C@H]2CCC[C@H]2CN1C(=O)[C@@H](NC(=O)[C@@H](NC(=O)c1cnccn1)C1CCCCC1)C(C)(C)C)C(=O)C(=O)NC1CC1",
    "CC50 at 72 h": "> 33 µM"
  },
  {
    "MOLECULE": "CC(C)(C)NC(=O)N[C@H](C(=O)N1C[C@H]2[C@@H]([C@H]1C(=O)NC(CC1CCC1)C(=O)C(N)=O)C2(C)C)C(C)(C)C (some centres undefined)",
    "CC50 at 72 h": "> 33 µM"
  }
]

---

- Tested on: Hepatitis C virus
- EXPERIMENT SUMMARY: Antiviral activity against Hepatitis C virus genotype 1b infected in human HuH6 cells assessed as reduction in replicon RNA after 4days by RT-qPCR analysis
- Format: functional, organism-based, Hepacivirus hominis
- CONDITION PARAMETERS: HuH-6, 96 h
hey, just use 1.0 if measured EC50 is less than 0.05 µM, otherwise 0.0

[
  {
    "MOLECULAR STRING": "C/C=C/C[C@@H](C)[C@@H](O)[C@H]1C(=O)N[C@@H](CC)C(=O)N(C)CC(=O)N(C)[C@@H](CC(C)C)C(=O)N[C@@H](C(C)C)C(=O)N(C)[C@@H](CC(C)C)C(=O)N[C@@H](C)C(=O)N[C@H](C)C(=O)N(C)[C@@H](CC(C)C)C(=O)N(C)[C@@H](CC(C)C)C(=O)N(C)[C@@H](C(C)C)C(=O)N1C",
    "LABEL CLASS": 0.0
  },
  {
    "MOLECULAR STRING": "CNC(=O)c1c(-c2ccc(F)cc2)oc2cc(N(CCO)S(C)(=O)=O)c(C3CC3)cc12",
    "LABEL CLASS": 1.0
  },
  {
    "MOLECULAR STRING": "C[C@@]1(O)[C@H](O)[C@@H](CO)O[C@H]1n1ccc(N)nc1=O",
    "LABEL CLASS": 0.0
  },
  {
    "MOLECULAR STRING": "Brc1c(Br)c(Br)c2[nH]nnc2c1Br",
    "LABEL CLASS": 0.0
  },
  {
    "MOLECULAR STRING": "COc1ccc2c(O[C@@H]3C[C@H]4C(=O)N[C@]5(C(=O)O)C[C@H]5/C=C\\CCCCC[C@H](NC(=O)OC5CCCC5)C(=O)N4C3)cc(-c3csc(NC(C)C)n3)nc2c1",
    "LABEL CLASS": 1.0
  }
]

meta.source: ChEMBL document CHEMBL1671625
